Target: T1, hPRLR.mmh (soluble monomeric human PRLR) (human)
T1 construct: soluble monomeric construct
T1 chain: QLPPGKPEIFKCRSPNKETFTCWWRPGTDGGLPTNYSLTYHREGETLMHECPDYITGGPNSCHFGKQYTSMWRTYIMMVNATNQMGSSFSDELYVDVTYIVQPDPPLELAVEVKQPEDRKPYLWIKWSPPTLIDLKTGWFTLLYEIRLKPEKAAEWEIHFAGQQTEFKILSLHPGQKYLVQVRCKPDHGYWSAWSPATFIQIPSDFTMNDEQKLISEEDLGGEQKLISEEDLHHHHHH
Test: SPR, 37C, mAb capture
Some binders, each annotated with its measured log10 T½.
Transform log10 | Measure T½ | Unit min

May I ask what log10 T½ has been recorded for H1H6793P (antibody, human IgG1, V domains shown, human IgG1 Fc (H1H)) VH: EVQLVESGGGLVQPGGSLRLSCAASGFSFSIYAMSWFRQAPGKGLEWVSAINGRGDGTHYADSVKGRFTISRDNSKTTLYLQMSSLRAEDTAVYYCAKPVMSTNGFDIWGQGTMVTVSS VL: DIQMTQSPSTLSASVGDRVTITCRASQSISSWLAWYQLKPGKAPKLLIYKASNLESGVPSRFSGSGSGTEFTLTISSLQPDDFATYYCQQYNIYWTFGQGTKVEIK ? 1.04

Need log10 T½ of H1H6765P (antibody, human IgG1, V domains shown, human IgG1 Fc (H1H)) VH: EVQLVESGGGVVRPGGSLRLSCVGSGFSFDDHGMNWVRQGPGKGLEWVSGFNWNGGSTNYAESVKGRFTISRDNARNSLFLQMNSLRAEDTALYYCVRGRSGWFNDAFDVWGPGTMVTVSS VL: EIVLTQSPGTLSLSPGERATLSCRASQTINSNYLAWYRQKPGQTPRLLIYGTSSRATGIPDRFSGSGSGTDFSLTISRLEPEDFAVFYCQQYAGLPTFGPGTKVDIK , thanks. 1.51

Name the recorded log10 T½ for H1H6800P (antibody, human IgG1, V domains shown, human IgG1 Fc (H1H)) VH: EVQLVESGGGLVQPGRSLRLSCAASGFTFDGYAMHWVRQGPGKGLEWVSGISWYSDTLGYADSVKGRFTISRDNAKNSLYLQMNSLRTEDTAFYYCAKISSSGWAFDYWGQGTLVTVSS VL: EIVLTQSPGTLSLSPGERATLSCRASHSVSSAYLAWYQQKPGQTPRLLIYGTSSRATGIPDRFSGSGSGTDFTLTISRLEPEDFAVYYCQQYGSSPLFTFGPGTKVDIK . 1.00

# input binder: H1H6960N (antibody, human IgG1, V domains shown, also called H2M6960N) VH: EVQLVESGGGLVKPGGSLRLSCAASGITFSSYSMNWVRQAPGKGLEWVSSISTRSSLIHYADSVKGRFTISRDNAKNSLYLQMNSLRDEDTAVYYCARWDAAAAFDYWGQGTLVIVSS VL: DIQLTQSPSFLSASVGDRVTITCWASQGISSYLAWYQQKPGKAPKLLIYVASTLQSGVPSRFSGSGSGTEFTLTISSLQPEDFATYFCQQLNSYPLTFGGGTKVEIK ; wanted: its log10 T½ 0.76

Find the recorded log10 T½ belonging to H1H6795P (antibody, human IgG1, V domains shown, human IgG1 Fc (H1H)) VH: QVQLVQSGAEVKKPGASVKVSCKASGYTFGTSGITWVRQAPGQGLEWMGWSSAYNGKTDYAQKFQDRVTMTTDTSTTTGYMEMRSLTSDDTAVYYCTTVVRRPFDFWGQGTLVTVSS VL: DIQMTQSPSSLSASVGDRVTITCRASQDINNFLAWFQQKPGKAPKSLIYAASSLQSGVPSKFSGGGSGTDFALTISSLQPEDFATYYCQQYSSYPITFGQGTRLEIK and report it. 0.30

Item H1H6774P (antibody, human IgG1, V domains shown, human IgG1 Fc (H1H)) VH: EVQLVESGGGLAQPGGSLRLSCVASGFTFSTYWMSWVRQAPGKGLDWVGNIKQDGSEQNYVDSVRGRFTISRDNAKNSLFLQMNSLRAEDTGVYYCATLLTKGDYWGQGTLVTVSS VL: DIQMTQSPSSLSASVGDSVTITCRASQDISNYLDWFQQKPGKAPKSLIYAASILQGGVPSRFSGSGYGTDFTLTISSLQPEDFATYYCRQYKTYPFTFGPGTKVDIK has what recorded log10 T½? 0.60

The measurements presented in this section are drawn from patent US20150056222A1.
